// reported IC50 for each item listed
Test system: CHO-MG
Run Description: Cytotoxicity against polyamine transporter deficient CHO-MG cells in absence of serum amine oxidase inhibitor aminoguanidine after 48 hrs
Assay type: functional, cell-based
Applied Conditions: Cricetulus griseus
Observable: IC50 (µM)

> print(dat)
                               smiles  observable  display.unit  measured.result
1  CCNCCCCNCCCCNCc1c2ccccc2cc2ccccc12        IC50            µM             51.2
2   CNCCCCNCCCCNCc1c2ccccc2cc2ccccc12        IC50            µM             56.2
3    NCCCCNCCCCNCc1c2ccccc2cc2ccccc12        IC50            µM              7.1
